All values here come from patent US20110098352A1.

# System: human DP2 receptor (Homo sapiens, UniProt Q9Y5Y4)
# Construct: expressed in transfected cells
# Sequence (Q9Y5Y4 whole entry): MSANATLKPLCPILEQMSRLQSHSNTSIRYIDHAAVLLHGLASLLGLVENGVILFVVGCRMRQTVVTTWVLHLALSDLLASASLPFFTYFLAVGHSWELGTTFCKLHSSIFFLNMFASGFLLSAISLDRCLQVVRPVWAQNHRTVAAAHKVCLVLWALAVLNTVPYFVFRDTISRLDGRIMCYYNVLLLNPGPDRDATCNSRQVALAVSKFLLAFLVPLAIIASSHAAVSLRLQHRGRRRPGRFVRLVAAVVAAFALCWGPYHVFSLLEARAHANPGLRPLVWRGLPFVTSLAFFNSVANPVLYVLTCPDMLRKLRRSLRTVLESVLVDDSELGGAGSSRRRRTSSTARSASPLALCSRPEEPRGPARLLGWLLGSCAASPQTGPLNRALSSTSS
# Assay name: DP2/CRTH2 radioligand binding assay using [3H]PGD2
# Experimental parameters: [3H]PGD2 binding, membranes of HEK293 cells expressing recombinant human DP2; read-out: hDP2
Quantity measured: IC50

CCN(Cc1cc(NC(C)=O)ccc1-c1cc(CC(=O)O)ccc1OC)C(=O)OCc1ccccc1 [Compound 1-153] | < 300 nM
CCN(Cc1cc(C(F)(F)F)ccc1-c1cc(CC(=O)O)ccc1OC)C(=O)C(C)Oc1ccccc1 (stereo not shown) [Compound 1-45] | < 300 nM
COc1ccc(CC(=O)O)cc1-c1ccc(C(F)(F)F)cc1CN(C(C)=O)C1CCCC1 [Compound 1-31] | < 300 nM

stdin: GET IC50 | system: human DP2 receptor (Homo sapiens, UniProt Q9Y5Y4) | item: CCN(Cc1cc(C(F)(F)F)ccc1-c1cc(CC(=O)O)ccc1OC)C(=O)NCc1ccc(Cl)c(Cl)c1 [Compound 1-152]
stdout: < 300 nM

stdin: GET IC50 | system: human DP2 receptor (Homo sapiens, UniProt Q9Y5Y4) | item: CCN(Cc1cc(Br)ccc1-c1cc(CC(=O)O)ccc1OC)C(=O)C1CC1 [Compound 1-247]
stdout: < 300 nM

stdin: GET IC50 | system: human DP2 receptor (Homo sapiens, UniProt Q9Y5Y4) | item: CC(=O)N(Cc1cc(C(F)(F)F)ccc1-c1cc(CC(=O)O)ccc1F)CC(F)(F)F [Compound 1-11]
stdout: < 300 nM

stdin: GET IC50 | system: human DP2 receptor (Homo sapiens, UniProt Q9Y5Y4) | item: CCN(Cc1cc(F)ccc1-c1cc(CC(=O)O)ccc1OC)C(=O)OCc1ccccc1 [Compound 1-183]
stdout: < 300 nM
